- System: U-251
- experiment-notes: NCI tumour cell line growth inhibition, 48 h
Activity calls are given as the source filed them. No stated cut-off is given here; in the data, active = GI50 up to about 1.1 µM and inactive = higher.
Output constraint: value belongs to yes (1) = active, no (0) = inactive

- molecule: "CC(=O)C=C1Nc2ccccc2N1"
  group: "no (0)"

Asked: Dear all, I need the recorded test outcome for COc1ccc(/N=N/c2c(C)c(C#N)c(=S)n(C3OC(CO)C(O)C(O)C3O)c2C)cc1 (stereo not given) , thank you.
Given back: no (0)

Asked: Dear all, I need the recorded test outcome for Cn1cc[n+](-c2cc(=O)n(C)c(=O)[n-]2)c1 , thank you.
Given back: no (0)

Asked: Dear all, I need the recorded test outcome for C1=N\CCNCC/N=C\c2ccc(cc2)OCc2cccc(n2)COc2ccc/1cc2 , thank you.
Given back: no (0)

Asked: Dear all, I need the recorded test outcome for N#C/C(=C\c1ccc(O)c(O)c1)C(N)=S , thank you.
Given back: no (0)

Asked: Dear all, I need the recorded test outcome for S=c1[nH]nc(Cn2c3ccc(Br)cc3c3nc4ccccc4nc32)o1 , thank you.
Given back: yes (1)

Asked: Dear all, I need the recorded test outcome for COC(=O)C/N=C1\NC(=S)N(Cc2ccc(OC)cc2)C12CCCC2 , thank you.
Given back: no (0)

Asked: Dear all, I need the recorded test outcome for Cc1ccc(NC(=O)CC2SC(Nc3ccc(Cl)cc3)=NC2=O)cc1C (stereo not given) , thank you.
Given back: no (0)

Asked: Dear all, I need the recorded test outcome for Nc1cc2c3c(cccc3c1)C(=O)N(c1ccc(OCCN3CCCC3)cc1)C2=O , thank you.
Given back: no (0)

----------
Reported GI50 values are given for each entry in this list.
- Tested on: SK-MEL-2
- experiment-notes: NCI tumour cell line growth inhibition, 48 h
Activity calls are given as the source filed them. No stated cut-off is given here; in the data, active = GI50 up to about 1.1 µM and inactive = higher.

Guide cases for GI50, answers given:
- compound: "Nc1ccc(C(=O)N/C(=C\\c2cccc([N+](=O)[O-])c2)c2nc3ccccc3[nH]2)cc1"
  reported: "37.2 µM (inactive)"
- compound: "Cc1c2cnccc2c(C)c2c1c1ccccc1n2CCOC(=O)c1ccccc1"
  reported: "12.5 µM (inactive)"
- compound: "N#CCCN(CCCN(CCCN(C(=O)Nc1ccccc1)c1ccccc1)C(=O)Nc1ccccc1)C(=O)Nc1ccccc1"
  reported: "> 8.75 µM (inactive)"
- compound: "Cc1ccc(/C=C2\\CCS(=O)(=O)c3ccccc3C2=O)cc1"
  reported: "21.9 µM (inactive)"

Asked: Any idea what GI50 came out for CC(C)(C)c1cc(C(=O)O)c(C(c2ccccc2)c2ccccc2C(=O)O)c(C(=O)O)c1 (stereo unspecified) on SK-MEL-2?
Given back: > 100 µM (inactive)

Asked: Any idea what GI50 came out for CN(CCNC(=O)c1cn(C)c2c1ccc1ccccc12)CCNC(=O)c1cn(C)c2c1ccc1ccccc12 on SK-MEL-2?
Given back: 2.2 µM (inactive)

Asked: Any idea what GI50 came out for CC(C)=CCC[C@](C)(O[C@@H]1O[C@H](CO)[C@@H](O)[C@H](O)[C@H]1O)[C@H]1CC[C@]2(C)[C@@H]1[C@H](O)C[C@@H]1[C@@]3(C)CC[C@H](O)C(C)(C)[C@@H]3[C@@H](O[C@@H]3O[C@H](CO)[C@@H](O)[C@H](O)[C@H]3O)C[C@]12C [GINSENOSIDE RG1] on SK-MEL-2?
Given back: > 100 µM (inactive)

Asked: Any idea what GI50 came out for COc1ccc(N[C@H]([C@@H](c2ccccc2)[S+]([O-])c2ccc(C)cc2)C(F)(F)F)cc1 (stereo partly specified) on SK-MEL-2?
Given back: 40 µM (inactive)

Asked: Any idea what GI50 came out for CC(=O)C(C)C(=O)N1C(=O)N(C)C2(C)N(C)C(=O)NC12C (stereo unspecified) on SK-MEL-2?
Given back: > 100 µM (inactive)

Asked: Any idea what GI50 came out for O=[N+]([O-])c1cc(C(F)(F)F)ccc1S(=O)(=O)N[C@@H]1CCCC[C@H]1NS(=O)(=O)c1ccc(C(F)(F)F)cc1[N+](=O)[O-] on SK-MEL-2?
Given back: 2.82 µM (inactive)

Asked: Any idea what GI50 came out for O=C(NCCNCCO)N/N=C/c1ccc(Cl)cc1 on SK-MEL-2?
Given back: > 100 µM (inactive)

Asked: Any idea what GI50 came out for CCOC(=O)c1ccc(C(=O)/C(C(C)=O)=C2\CCCN2C)n1C on SK-MEL-2?
Given back: > 100 µM (inactive)

Asked: Any idea what GI50 came out for O=P(Oc1ccccc1)(Oc1ccccc1)Oc1c[nH]c2ccccc12 on SK-MEL-2?
Given back: 5.47 µM (inactive)

Asked: Any idea what GI50 came out for COc1ccccc1Cc1nc(-c2ccccc2)nn(C2OC(COC(C)=O)C(OC(C)=O)C(OC(C)=O)C2OC(C)=O)c1=S (stereo unspecified) on SK-MEL-2?
Given back: 11.3 µM (inactive)

Asked: Any idea what GI50 came out for Cc1nc2c(sc(=S)n2-c2ccccc2)c(=O)[nH]1 on SK-MEL-2?
Given back: > 100 µM (inactive)

Asked: Any idea what GI50 came out for Cc1ccc(N2C=Nn3c(nc4sc5c(c4c3=O)CCCC5)C2)cc1 on SK-MEL-2?
Given back: > 100 µM (inactive)

----------
- Test system: UO-31
- experiment-notes: NCI tumour cell line growth inhibition, 48 h
Active and inactive are the calls of the source. Rule as the data show it: active = GI50 up to about 1.1 µM and inactive = higher.
Output constraint: value belongs to True = active, False = inactive

These recorded examples may help you get a feel for the data.
- molecule: "COc1ccc2c(CN3CCCCC3CO)cc3cc(OC)c(OC)cc3c2c1 (configuration not stated)"
  group: "False"
- molecule: "O=C(/C=C/c1ccccc1)CSc1nc2ccc(I)cc2c(=O)n1Cc1ccccc1"
  group: "True"
- molecule: "CC[N+](CC)(CC)Cc1cc2ccccc2n1C(=O)OC"
  group: "False"
- molecule: "COC12COC(=O)C1C(c1ccc3c(c1)OCO3)c1cc3c(cc1O2)OCO3 (configuration not stated)"
  group: "False"
- molecule: "COc1nc(=O)n(COC(CO)CN2C(=O)c3ccccc3C2=O)cc1Cc1cccc(OCc2ccccc2)c1 (configuration not stated)"
  group: "False"

Asked: Dear all, I need the recorded test outcome for COC(=O)C(C(=O)OC)C1CC(=O)c2c(Br)sc(Br)c21 (configuration not stated) , thank you.
Given back: False

Asked: Dear all, I need the recorded test outcome for CN(C)CC1CCCC(CN2CCCCC2)C1=O (configuration not stated) , thank you.
Given back: False

----------
- System: HT-29
- experiment-notes: NCI tumour cell line growth inhibition, 48 h
The source made the active and inactive calls. Cut-off read from the data, not from the text of the source: active = GI50 up to about 1.1 µM and inactive = higher.
measured-quantity: GI50

Guide cases for GI50, answers given:
- molecule: "O=S1(=O)OC(c2ccc(O)cc2)(c2ccc(O)cc2)c2ccccc21 [PHENOLSULFONPHTHALEIN]"
  measured-quantity: "GI50"
  reported: "> 100 µM (inactive)"
- molecule: "O=C1OC(CC(=O)c2ccc(Cl)cc2)C(Cl)=C1Cl (stereo unspecified)"
  measured-quantity: "GI50"
  reported: "> 100 µM (inactive)"
- molecule: "Sc1nnc(SCc2ccccc2Cl)c2nc[nH]c12"
  measured-quantity: "GI50"
  reported: "> 100 µM (inactive)"
- molecule: "C[Si](C)(C)CN1C(=O)c2ccccc2C1(O)c1ccccc1 (stereo unspecified)"
  measured-quantity: "GI50"
  reported: "87.9 µM (inactive)"

Asked: Any idea what GI50 came out for C=C1c2ccccc2Oc2nc3nc(N)c(C#N)c(N)c3c(N)c21 on HT-29?
Given back: 23.1 µM (inactive)

Asked: Any idea what GI50 came out for OCC1OC(NO)C(O)C(O)C1O (stereo unspecified) on HT-29?
Given back: > 100 µM (inactive)

----------
- Tested on: NCI-H522
- experiment-notes: NCI tumour cell line growth inhibition, 48 h
Calls of active or inactive are those of the source. Cut-off read from the data, not from the text of the source: active = GI50 up to about 1.1 µM and inactive = higher.
Output constraint: value belongs to T = active, F = inactive

These recorded examples may help you get a feel for the data.
- compound: "CCOC(=O)C(C(=O)OCC)=C1N[C@H](C(=O)OCC)CS1"
  target-entity: "NCI-H522"
  group: "F"
- compound: "COC(=O)CCC(NC(=S)N/N=C/c1ccccn1)C(=O)OC (stereo not given)"
  target-entity: "NCI-H522"
  group: "F"
- compound: "c1ccc(-c2sc(-c3ccccc3)c3c2C(c2ccccc2)c2c(-c4ccccc4)sc(-c4ccccc4)c2C3c2ccccc2)cc1 (stereo not given)"
  target-entity: "NCI-H522"
  group: "F"
- compound: "COc1ccc(C(=O)/C=C/c2cc(O)c(O)cc2F)c(OC)c1"
  target-entity: "NCI-H522"
  group: "T"

Asked: Dear all, I need the recorded test outcome for O=C(O)CCN(CCCN(CCC(=O)O)CCC(=O)O)CCC(=O)O , thank you.
Given back: F

Asked: Dear all, I need the recorded test outcome for Oc1ccc(-c2cc(-c3c(O)cc(O)cc3O)on2)cc1 , thank you.
Given back: F

Asked: Dear all, I need the recorded test outcome for CC(C)(C)OC(=O)NC12C3C4C1C1C2C3C41NC(=O)OC(C)(C)C (stereo not given) , thank you.
Given back: F

Asked: Dear all, I need the recorded test outcome for CC1(C)O[C@@H](CC/C=C/CO)[C@H](CC/C=C/CO)O1 , thank you.
Given back: F

Asked: Dear all, I need the recorded test outcome for COC(=O)C1=CC2C(=O)OC1C1C(=O)NC(=O)C21 (stereo not given) , thank you.
Given back: F

Asked: Dear all, I need the recorded test outcome for NC(CCCC(N)P(=O)(O)O)P(=O)(O)O (stereo not given) , thank you.
Given back: F

These data points were gathered from ChEMBL document CHEMBL1201862.
